Parameter OC43 Inhibition rate: see the listing below.
system: HCoV-OC43; design: species or system RD; HTS, protection from HCoV-OC43 induced cell death, luminescent cell viability (CellCounting-Lite 2.0), inhibition rate; details: 24 h post infection, 1 h compound pre-incubation, 10 µM, inhibitor, OC43 Inhibition rate, 24 h
Screen size: about 3,300 compounds; about 60 (2%) showed an effect of 50% or more. The full list was thinned out, with strong results kept by preference.
Dear colleague, please return just the value in %, with no unit written.

Study these solved cases before continuing.
C[C@@H](O)CC(=O)O [(R)-3-Hydroxybutanoic acid] : -0.8
C[C@H](CCC(=O)NCC(=O)O)[C@H]1CC[C@H]2[C@@H]3CC[C@@H]4C[C@H](O)CC[C@]4(C)[C@H]3C[C@H](O)[C@]12C [Glycodeoxycholic acid (monohydrate)] : -0.8

# evaluate next
Ask: What measured OC43 Inhibition rate goes with CC(C)=CCC[C@](C)(O)[C@@H]1CC=C(C)CC1 ?
Reply: -0.7
